assayed_system: human EHMT1 982-1266 (Homo sapiens)
Sequence (Q9H9B1 982-1266): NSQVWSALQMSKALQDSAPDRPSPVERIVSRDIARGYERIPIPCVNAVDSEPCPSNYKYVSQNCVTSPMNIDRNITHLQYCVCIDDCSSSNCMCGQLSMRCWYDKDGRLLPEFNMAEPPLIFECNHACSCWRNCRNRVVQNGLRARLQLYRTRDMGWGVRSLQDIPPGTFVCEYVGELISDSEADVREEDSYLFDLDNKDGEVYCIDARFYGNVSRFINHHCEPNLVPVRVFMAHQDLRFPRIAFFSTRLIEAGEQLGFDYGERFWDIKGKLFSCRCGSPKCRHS
method_description: EHMT1 enzyme assay on histone peptide substrate (3H-SAM SPA)
assay_context: EHMT1 IC50, recombinant human EHMT1 982-1266, histone peptide substrate
Below: a set of entries, each annotated with reported IC50.

CNc1cc(C)nc(Nc2cc3c(c(C4=CCNC(C)CC4)c2F)OCCO3)n1 (single isomer, unassigned) [Compound 163] :: < 100 nM

Inquiry: Quick one: IC50 of `[2H]Cc1cc(NC([2H])([2H])[2H])nc(Nc2cc3c(c(C4=CCN(C)CCC4)c2)OCCC3)n1` ?
Reply text: < 100 nM

Inquiry: Quick one: IC50 of `CNc1cc(C)nc(Nc2cc3c(c([C@H]4CC[C@H](N)CC4)c2)OCCO3)n1` ?
Reply text: 100 to 500 nM

---

System: H3K9me2 in HCT116 cells
method_description: HCT116 H3K9me2 in-cell western assay
Type: cell-based
assay_context: Homo sapiens, HCT-116, 72 h, HCT116 cells, 72 hours incubation; read-out: H3K9me2 ICW IC50
pIC50: −log10 of the molar value.
Below: a set of entries, each annotated with reported pIC50.

Cc1cc(NCC(F)(F)F)nc(Nc2cc3c(c(C4=CCNCCC4)c2)OCC3)n1 :: 6.30 to 7.00
[2H]C([2H])([2H])CNc1cc(C)nc(Nc2cc3c(c(C4=CCN(C)CCC4)c2F)OCC3)n1 :: > 7.00
[2H]Cc1cc(NC([2H])([2H])[2H])nc(Nc2cc3c(c(C4=CCN(C)CCC4)c2)OCO3)n1 :: > 7.00
CNc1cc(C)nc(Nc2cc3c(c(C4=CCC(N)CC4)c2F)OCC3)n1 (single isomer, unassigned) :: > 7.00
CNc1cc(C)nc(Nc2cc3c(c(C4=CCNCCC4)c2F)OCCO3)n1 :: > 7.00
CNc1cc(C)nc(Nc2c(F)c3c(c(C4=CCNCCC4)c2F)OCC3)n1 :: > 7.00

Inquiry: Quick one: pIC50 of CNc1cc(C)nc(Nc2cc3c(c(C4C[C@H]5CNC[C@H]5C4)c2)OCCC3)n1 (some centres unmarked) ?
Reply text: 6.30 to 7.00

Inquiry: Quick one: pIC50 of `CNc1cc(C(C)C)nc(Nc2cc3c(c(C4=CCN(C)CCC4)c2)OCC3)n1` ?
Reply text: 6.30 to 7.00

Inquiry: Quick one: pIC50 of `[2H]Cc1nc(Nc2cc3c(c(C4=CCNCCC4)c2)OCC3)nc(NCC([2H])([2H])[2H])c1F` ?
Reply text: 6.30 to 7.00

Inquiry: Quick one: pIC50 of `CNc1cc(CC(F)(F)F)nc(Nc2cc3c(c(C4=CCNCCC4)c2)OCC3)c1` ?
Reply text: 6.30 to 7.00

Inquiry: Quick one: pIC50 of `COCCCNc1cc(C)nc(Nc2cc3c(c(C4=CCN(C)CCC4)c2)OCC3)n1` ?
Reply text: 6.30 to 7.00

Inquiry: Quick one: pIC50 of `[2H]C([2H])([2H])CNc1cc(C)nc(Nc2cc3c(c(C4=CCN(C)CCC4)c2)OCCC3)n1` ?
Reply text: 6.30 to 7.00

Inquiry: Quick one: pIC50 of `CNc1nc(Nc2cc3c(c(C4=CCNCCC4)c2)OCC3)nc(C)c1Cl` ?
Reply text: 6.30 to 7.00
